// provenance: ChEMBL document CHEMBL1124725

Documented Ki app across a set of compounds
Molecular target: Steroid 5-alpha-reductase (Rattus norvegicus, UniProt P24008+P31214)
Assay: In vitro inhibition of Steroid 5-alpha-reductase in rat ventral prostates.
Assay type: tissue-based, Prostate gland
value.type: Ki app (µM)

INSERT INTO assay_data (compound, value_type, readout_qualifier, measured) VALUES
  ('CC(C)N(C(=O)[C@H]1CCC2C3CCC4=C[C@@](O)(C(=O)O)CC[C@]4(C)C3CC[C@@]21C)C(C)C (some centres undefined)', 'Ki app', '>', 10),
  ('CC(C)N(C(=O)[C@H]1CCC2C3CC(C(F)(F)F)=C4C=C(C(=O)O)CC[C@]4(C)C3CC[C@@]21C)C(C)C (some centres undefined)', 'Ki app', '=', 1),
  ('CC(C)N(C(=O)[C@H]1CCC2C3CCC4=CC(C(=O)O)=CC[C@]4(C)C3CC[C@@]21C)C(C)C (some centres undefined)', 'Ki app', '=', 0.12),
  ('CC(C)N(C(=O)[C@H]1CCC2C3CC[C@H]4CC(C(=O)O)=CC[C@]4(C)C3CC[C@@]21C)C(C)C (some centres undefined)', 'Ki app', '=', 0.11);

---

Molecular target: Steroid 5-alpha-reductase (Rattus norvegicus, UniProt P24008+P31214)
Assay: In vitro inhibition of Steroid 5-alpha-reductase in rat ventral prostates.
Format: tissue-based, Prostate gland
value.type: log10 of Ki app (log10 of the value in nM)

INSERT INTO measurements (compound, target_system, value_type, measured) VALUES
  ('CC(CO)[C@@H]1CCC2C3CCC4C=C(C(=O)O)CC[C@]4(C)C3CC[C@@]21C (some centres undefined)', 'Steroid 5-alpha-reductase (Rattus norvegicus, UniProt P24008+P31214)', 'log10 of Ki app', 2.19),
  ('CC1=C2C=C(C(=O)O)CC[C@]2(C)C2CC[C@@]3(C)C(CC[C@@H]3C(=O)N(C(C)C)C(C)C)C2C1 (some centres undefined)', 'Steroid 5-alpha-reductase (Rattus norvegicus, UniProt P24008+P31214)', 'log10 of Ki app', 2.30),
  ('CC(C)N(C(=O)[C@H]1CCC2C3CCC4=C(CCC(C(=O)O)=C4)C3CC[C@@]21C)C(C)C (some centres undefined)', 'Steroid 5-alpha-reductase (Rattus norvegicus, UniProt P24008+P31214)', 'log10 of Ki app', 2.46),
  ('CC(C)N(C(=O)[C@H]1CC[C@H]2[C@@H]3CC[C@H]4C(F)=C(C(=O)O)CC[C@]4(C)[C@H]3CC[C@]12C)C(C)C', 'Steroid 5-alpha-reductase (Rattus norvegicus, UniProt P24008+P31214)', 'log10 of Ki app', 1.54),
  ('CC(C)N(C(=O)[C@H]1CCC2C3CC=C4C=C(C(=O)O)C=C[C@]4(C)C3CC[C@@]21C)C(C)C (some centres undefined)', 'Steroid 5-alpha-reductase (Rattus norvegicus, UniProt P24008+P31214)', 'log10 of Ki app', 2.78),
  ('CC(C)N(C(=O)[C@H]1CCC2C3CC(F)=C4C=C(C(=O)O)CC[C@]4(C)C3CC[C@@]21C)C(C)C (some centres undefined)', 'Steroid 5-alpha-reductase (Rattus norvegicus, UniProt P24008+P31214)', 'log10 of Ki app', 1.52),
  ('CC(C)N(C(=O)[C@H]1CCC2C3C=CC4=CC(C(=O)O)=CC[C@]4(C)C3CC[C@@]21C)C(C)C (some centres undefined)', 'Steroid 5-alpha-reductase (Rattus norvegicus, UniProt P24008+P31214)', 'log10 of Ki app', 2.48);

---

Documented Ki across a set of compounds
Target: 3-oxo-5-alpha-steroid 4-dehydrogenase 2 (Homo sapiens, UniProt P31213)
Sequence (P31213 whole entry): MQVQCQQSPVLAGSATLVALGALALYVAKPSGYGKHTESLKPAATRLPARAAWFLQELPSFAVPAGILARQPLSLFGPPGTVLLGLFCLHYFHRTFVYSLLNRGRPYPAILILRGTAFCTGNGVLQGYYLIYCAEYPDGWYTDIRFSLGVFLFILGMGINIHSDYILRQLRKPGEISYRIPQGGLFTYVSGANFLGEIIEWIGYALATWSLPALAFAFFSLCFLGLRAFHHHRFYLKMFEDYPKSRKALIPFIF
Assay: In vitro inhibition of Steroid 5-alpha-reductase in human prostatic tissue.
Details: read-out: Ki app
value.type: Ki

INSERT INTO measurements (compound, measured) VALUES
  ('CC(C)N(C(=O)[C@H]1CCC2C3CCC4=C[C@H](C(=O)O)CC[C@]4(C)C3CC[C@@]21C)C(C)C (some centres undefined)', '570 nM'),
  ('CC(C)N(C(=O)[C@H]1CCC2C3CC[C@H]4C=C(C(=O)O)C=C[C@]4(C)C3CC[C@@]21C)C(C)C (some centres undefined)', '62 nM'),
  ('CC(CO)[C@@H]1CCC2C3CCC4C=C(C(=O)O)CC[C@]4(C)C3CC[C@@]21C (some centres undefined)', '5000 nM'),
  ('CC1=C(C(=O)O)CC[C@@]2(C)C1=CCC1C2CC[C@@]2(C)C1CC[C@@H]2C(=O)N(C(C)C)C(C)C (some centres undefined)', '35 nM');
